Cited source for all entries: ChEMBL document CHEMBL1155466

target: Substance-K receptor (Cavia porcellus) (UniProt Q64077); assay: Antagonist activity at NK2 receptor in Dunkin-Hartley guinea pig colon smooth muscle assessed as inhibition of [beta-Ala8]NKA(4-10)-induced tissue contraction in presence of NK1 receptor antagonist SR-140333; format: functional, tissue-based
Sequence (Q64077 whole entry): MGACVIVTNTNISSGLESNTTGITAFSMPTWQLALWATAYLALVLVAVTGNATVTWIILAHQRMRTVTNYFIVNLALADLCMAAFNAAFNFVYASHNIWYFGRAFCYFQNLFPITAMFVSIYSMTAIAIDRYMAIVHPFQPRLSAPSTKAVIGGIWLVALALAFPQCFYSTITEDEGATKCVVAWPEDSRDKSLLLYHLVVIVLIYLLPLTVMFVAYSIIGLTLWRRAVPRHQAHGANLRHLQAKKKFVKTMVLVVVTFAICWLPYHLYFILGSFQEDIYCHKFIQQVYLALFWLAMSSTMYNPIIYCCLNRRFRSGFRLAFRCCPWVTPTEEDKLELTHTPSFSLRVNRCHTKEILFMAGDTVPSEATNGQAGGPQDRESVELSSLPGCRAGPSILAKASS
Result type: pKb

Cc1ccc2cc(C(=O)NC3(C(=O)N[C@@H](COCCC4CCN(CC5CCOCC5)CC4)Cc4ccccc4)CCCC3)sc2c1 | 6.9
Cc1ccc2cc(C(=O)NC3(C(=O)N[C@@H](CCCN4CCN(Cc5nnn(C)n5)CC4)Cc4ccccc4)CCCC3)sc2c1 | 7.9
Cl.N[C@@H](CCC(=O)N1CCN(CC2CCOCC2)CC1)Cc1ccccc1 | 7.9
Cc1ccc2cc(C(=O)NC3(C(=O)N[C@@H](CCCN4CCC(N5CCOCC5)CC4)Cc4ccccc4)CCCC3)sc2c1 | 7.8
